Kindly supply the reported IC50 values for the records listed here.
- targetDesc: GSK3β (Homo sapiens (Human), UniProt P49841)
- Sequence (P49841 whole entry): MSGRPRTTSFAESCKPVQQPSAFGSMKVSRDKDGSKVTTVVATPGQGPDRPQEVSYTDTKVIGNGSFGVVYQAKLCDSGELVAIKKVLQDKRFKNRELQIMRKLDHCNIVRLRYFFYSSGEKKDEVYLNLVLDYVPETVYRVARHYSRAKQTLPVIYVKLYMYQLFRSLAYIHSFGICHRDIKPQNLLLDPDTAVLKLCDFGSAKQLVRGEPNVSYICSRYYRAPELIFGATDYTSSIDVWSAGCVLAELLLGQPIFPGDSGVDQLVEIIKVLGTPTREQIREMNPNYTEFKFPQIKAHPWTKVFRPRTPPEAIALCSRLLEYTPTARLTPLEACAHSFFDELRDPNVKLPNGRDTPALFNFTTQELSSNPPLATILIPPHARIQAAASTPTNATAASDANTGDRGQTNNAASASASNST
- assayText: GSK3 beta biochemical assay (TR-FRET)

> print(dat)
                                   compound                                targetdesc  reportedvalue
1  CCC1(c2ccccc2)C2=C(CCCC2=O)Nc2ncsc21 (stereo not shown)  GSK3β (Homo sapiens (Human), UniProt P49841)      > 1.67 µM
2  CC1(C)CC(=O)C2=C(C1)Nc1ncsc1C21CCCc2ccccc21 (stereo not shown)  GSK3β (Homo sapiens (Human), UniProt P49841)         > 5 µM
3  CC1(C)CC(=O)C2=C(C1)Nc1ncsc1C21CCCCc2ccccc21 (stereo not shown)  GSK3β (Homo sapiens (Human), UniProt P49841)         > 5 µM

Could you now consider this next compound?
stdin: So what's the measured IC50 for this one? CCC1(c2ccccc2)C2=C(CC(C)(C)CC2=O)Nc2nc(C)sc21 (stereo not shown)
stdout: > 5 µM
